B1: CPEB3 Ribozyme (parent)
chain: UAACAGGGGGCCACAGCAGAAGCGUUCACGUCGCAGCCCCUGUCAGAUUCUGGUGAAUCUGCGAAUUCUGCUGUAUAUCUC

variants of: B1; assay: self-cleavage, relative activity (ratio to wild type); higher = more cleavage; in vitro, sequencing
Think of 0.3 as a floor: if self-cleavage stands on it or above, it is True; beneath it, False.

[ask] Reported self-cleavage reaches at least 0.3 for A2U G9A ?
[reply] False

[ask] Could you verify whether the entry A18G C39A shows self-cleavage of no less than 0.3?
[reply] True

[ask] Has A21U G61A a recorded self-cleavage greater than or equal to 0.3?
[reply] True

[ask] Tell me whether self-cleavage is at least 0.3 here: G6A A47G
[reply] True

[ask] Form field: self-cleavage at least 0.3? Entry: A28G A64U
[reply] False

[ask] Please check the record A3U U43G and state if its self-cleavage is at or above 0.3.
[reply] True

[ask] Dear colleague, could you confirm whether U1C G10A has self-cleavage at or above 0.3?
[reply] False

[ask] Kindly determine if self-cleavage recorded for U67C A77U is above or exactly 0.3.
[reply] True

[ask] Reported self-cleavage reaches at least 0.3 for U31C C68A ?
[reply] False

[ask] Hello, I need to know if A57G U66A has measured self-cleavage not below 0.3. Thanks!
[reply] True

[ask] Quick check: does U60C A64G have self-cleavage greater than or equal to 0.3?
[reply] True

[ask] Evaluate A45G C62U : self-cleavage at minimum 0.3?
[reply] False

[ask] Evaluate A35U C40A : self-cleavage at minimum 0.3?
[reply] False

[ask] Would you say C12G U69C shows self-cleavage at minimum 0.3?
[reply] False

[ask] # check: self-cleavage of A20U A77C is greater than or equal to 0.3
[reply] False

[ask] Tell me whether self-cleavage is at least 0.3 here: C71U U72G
[reply] True

[ask] Does self-cleavage meet or surpass 0.3 for G36U G63A ?
[reply] False

[ask] Say whether G36C U49A shows self-cleavage of 0.3 or more.
[reply] False

[ask] Reported self-cleavage at or above 0.3? A65G U67C
[reply] True

[ask] Form field: self-cleavage at least 0.3? Entry: A35U A77U
[reply] True

[ask] Has G52C C68U a recorded self-cleavage greater than or equal to 0.3?
[reply] True

[ask] Does the reported self-cleavage for A2G U69G fall at or above the 0.3 mark?
[reply] True
